Source of measurements: PubChem BioAssay (NCI)

In this section we review reported TGI values for a set of molecules.
Test system: SNB-78 CNS
MEASUREMENT_DESCRIPTION: NCI tumour cell line growth inhibition, 48 h

Ask | I'd like to know its TGI. The molecule in question is O=C1O[C@@H](c2ccccc2)C[C@H]1CN1CCOCC1
Reply | > 100 µM

* * *

Test system: HCT-116 colon
MEASUREMENT_DESCRIPTION: NCI tumour cell line growth inhibition, 48 h
Response key: satisfied means TGI >= 30 µM; not satisfied means TGI < 30 µM.

O=C1c2ccccc2C(=O)N1C/C=N/NS(=O)(=O)c1ccc(F)cc1 ... satisfied

Ask | Does the compound Cc1c(S(=O)(=O)/N=C(\NN)Nc2ccc(Cl)cc2)sc2ccc(Cl)cc12 have recorded TGI that is 30 µM or more?
Reply | not satisfied

Ask | Does the compound CC1OC(OC2C(O)C(OCCc3ccc(O)c(O)c3)OC(CO)C2OC(=O)/C=C/c2ccc(O)c(O)c2)C(O)C(O)C1OC1OCC(O)(CO)C1O (centres undefined) have recorded TGI that is 30 µM or more?
Reply | satisfied

* * *

System: OVCAR-3 ovarian
MEASUREMENT_DESCRIPTION: NCI tumour cell line growth inhibition, 48 h
In this section we review reported TGI values for a set of compounds.

Some solved entries appear below for comparison.
O=C(CN=C(CN(c1ccccc1)c1ccccc1)Oc1c(Cl)cc(Cl)cc1Cl)N1c2ccccc2Sc2ccccc21 ... > 100 µM
CN(C)CCN=C1c2ccccc2-c2c(=O)n(CCN(C)C)c(O)c3cccc1c23 ... 0.689 µM

Ask | Give OVCAR-3 ovarian TGI for CCOC(=O)NC(=O)c1cn(CCCOC(=O)CCCCCCCCC(=O)OCCCn2cc(C(=O)NC(=O)OCC)c(=O)n(C)c2=O)c(=O)n(C)c1=O
Reply | > 100 µM

* * *

System: 786-0 renal
MEASUREMENT_DESCRIPTION: NCI tumour cell line growth inhibition, 48 h
In this section we review reported TGI values for a set of molecules.

Some solved entries appear below for comparison.
O=C1c2ccccc2-c2nc(-c3ccncc3)cc3c2c1nc1ccccc13 ... > 100 µM
Oc1c(CN2CCOCC2)ccc(CN2CCOCC2)c1O ... > 100 µM
NC(=S)N/N=C/c1c[nH]c2ccccc12 ... > 100 µM
O=C(NCCOC(=O)OCCNC(=O)NC1CCCCC1)NC1CCCCC1 ... > 100 µM
Brc1ccc(SCN(CSc2ccc(Br)cc2)Cc2ccccc2)cc1 ... 15.5 µM
N#Cc1c(-c2ccc([N+](=O)[O-])cc2)cc(-c2ccc(Nc3ccnc4cc(C(F)(F)F)ccc34)cc2)[nH]c1=O ... > 100 µM
c1ccc(NNC2=NCCN2)cc1 ... > 100 µM
COC1=CC(=O)c2c(ccc3ncnc(N)c23)C1=O ... 3.35 µM
CCOP(=S)(OCC)Oc1ccc2c(c1)OC(=O)C1(Cl)C2(C)C2(Cl)C(=O)Oc3cc(OP(=S)(OCC)OCC)ccc3C12C (stereo not drawn) ... 44.9 µM
O=C(/C=C/c1cc2ccccc2[nH]c1=O)c1ccc(Cl)cc1 ... > 100 µM

Ask | I'd like to know its TGI. The molecule in question is Cn1c(=O)n(CCCO)c(=O)c2c1nc(Oc1cccc(OC(F)(F)F)c1)n2Cc1ccc(Cl)cc1
Reply | 27.4 µM

Ask | I'd like to know its TGI. The molecule in question is COC(=O)C1Cc2c([nH]c3ccccc23)C(C2CCCCC2)N1 (stereo not drawn)
Reply | > 100 µM
